Reference source: the SangsterLogP compilation

# ASSAY INFO: method code SF-AS, from DOI: 10.1016/0045-6535(94)00381-4
ENDPOINT NAME: logP
Answer with a bare number; do not write a unit.

Examples with their reported logP follow.
> print(dat)
                                smiles.code  endpoint.name  recorded.measurement
1  COC(=O)CS(=O)(=O)c1ccc([N+](=O)[O-])cc1Cl           logP                  1.45
2  CC(C)OC(=O)C1(S(=O)(=O)c2ccc([N+](=O)[O-])cc2)CC1           logP                  2.05
3         CC(C)OC(=O)CS(=O)(=O)c1ccc(Cl)cc1           logP                  2.04
4     COC(=O)C1(S(=O)(=O)c2ccc(Br)cc2)CCCC1           logP                  2.73
5      CCOC(=O)C1(S(=O)(=O)c2ccc(C)cc2)CCC1           logP                  2.31
6       CCOC(=O)C1(S(=O)(=O)c2ccc(C)cc2)CC1           logP                  2.23

In the following, a different molecule is considered.
Please give the documented logP of CC(C)OC(=O)C1(S(=O)(=O)c2ccc([N+](=O)[O-])cc2)CCCCC1
2.84
